Molecular target: aiPLA2 activity of recombinant human Prdx6 (Homo sapiens)
Sequence (P30041 whole entry): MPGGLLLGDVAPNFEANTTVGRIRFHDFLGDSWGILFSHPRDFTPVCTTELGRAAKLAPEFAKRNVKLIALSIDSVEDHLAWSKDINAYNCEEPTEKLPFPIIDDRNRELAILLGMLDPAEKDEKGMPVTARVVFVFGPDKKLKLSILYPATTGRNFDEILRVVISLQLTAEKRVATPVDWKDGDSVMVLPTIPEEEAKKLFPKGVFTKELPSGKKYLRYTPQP
Assay: aiPLA2 (PLA2) activity of recombinant human Prdx6 in vitro, 3H-DPPC liposome substrate
Type: biochemical
Settings: peptides deleted from N-terminus of 16-aa rat-derived SP-A peptide; no-peptide control 94.8; 3H-DPPC liposomes, 60 min; one assay done in duplicate
Record yes whenever Activity (aiPLA2 of recombinant hPrdx6), deletion from N-term is at 30 nmol/min/mg Prot. or higher; record no when lower.

Some entries whose results are on file:
YEIKHQIL [8-aa N-terminal deletion of rat 16-aa peptide]; yes
ELYEIKHQIL [10-aa N-terminal deletion of rat 16-aa peptide]; no
DEELQTELYEIKHQIL; yes
LYEIKHQIL [PIP-1]; yes
ELQTELYEIKHQIL [14-aa N-terminal deletion of rat 16-aa peptide]; yes

Please check the record QTELYEIKHQIL [12-aa N-terminal deletion of rat 16-aa peptide] and state if its Activity (aiPLA2 of recombinant hPrdx6), deletion from N-term is at or above 30 nmol/min/mg Prot.. yes
